# MEASUREMENT_PROTOCOL: Volume of distribution at steady state in male Wistar-Han rat at 0.4 mg/kg, iv
# Format: ADME, organism-based
# Parameters: dose 0.4 mg/kg, route intravenous
# ASSAY_CONTEXT: in vivo, read-out: Vdss
Where a SMILES comes first, the peptide text is derived from it. [ ]: non-standard residue; d: D form. NMeY = CN[C@@H](Cc1ccc(O)cc1)C(=O)O; NMeT = CN[C@H](C(=O)O)[C@@H](C)O; dNMeL = CN[C@H](CC(C)C)C(=O)O
EXPERIMENTAL_ENDPOINT: Vd (L/kg)
Your answer is read as L/kg, so omit the unit and give the number.

compound CC(C)C[C@@H]1NC(=O)[C@H](Cc2ccc(O)cc2)N(C)C(=O)[C@H]2CCCN2C(=O)[C@H](CC(C)C)NC(=O)[C@H]([C@@H](C)O)N(C)C(=O)[C@@H](CC(C)C)N(C)C1=O (cyclo(L[dNMeL][NMeT]L[dP][NMeY])) , Vd observed: 3.8

====

# MEASUREMENT_PROTOCOL: AUC (0 to infinity) in male Wistar-Han rat at 1 mg/kg, iv
# Type: ADME, organism-based
# Set-up: time infinity, dose 1 mg/kg, route intravenous
# ASSAY_CONTEXT: plasma
Where a SMILES comes first, the peptide text is derived from it. [ ]: non-standard residue; d: D form. NMeY = CN[C@@H](Cc1ccc(O)cc1)C(=O)O; dNMeL = CN[C@H](CC(C)C)C(=O)O; NMeK = CN[C@@H](CCCCN)C(=O)O; NMeS = CN[C@@H](CO)C(=O)O
The entries below come with measured AUC(0-inf) values attached.
Report the figure in ng·h/mL without appending any unit label.

CC(C)C[C@@H]1NC(=O)[C@H](Cc2ccc(O)cc2)N(C)C(=O)[C@H]2CCCN2C(=O)[C@H](CC(C)C)NC(=O)[C@H](CCCCN)N(C)C(=O)[C@@H](CC(C)C)N(C)C1=O (cyclo(L[dNMeL][NMeK]L[dP][NMeY])): 1640

Now consider a different molecule.
Documented AUC(0-inf) of CC(C)C[C@@H]1NC(=O)[C@H](Cc2ccc(O)cc2)N(C)C(=O)[C@H]2CCCN2C(=O)[C@H](CC(C)C)NC(=O)[C@H](CO)N(C)C(=O)[C@@H](CC(C)C)N(C)C1=O (cyclo(L[dNMeL][NMeS]L[dP][NMeY])) : 282

====

# MEASUREMENT_PROTOCOL: Lipophilicity, log D of the compound at pH 7.4 by shake-flask method
# Format: physicochemical
# ASSAY_CONTEXT: buffer
Where a SMILES comes first, the peptide text is derived from it. [ ]: non-standard residue; d: D form. NMeAbu(4-morpholino) = CN[C@@H](CCN1CCOCC1)C(=O)O; NMeW = CN[C@@H](Cc1c[nH]c2ccccc12)C(=O)O; NMeY = CN[C@@H](Cc1ccc(O)cc1)C(=O)O; NMeF = CN[C@@H](Cc1ccccc1)C(=O)O; dNMeL = CN[C@H](CC(C)C)C(=O)O; NMeA = CN[C@@H](C)C(=O)O
EXPERIMENTAL_ENDPOINT: logD
// no unit string in output, number only

CC(C)C[C@@H]1NC(=O)[C@H](Cc2ccc(O)cc2)N(C)C(=O)[C@H]2CCCN2C(=O)[C@H](CC(C)C)NC(=O)[C@H](Cc2c[nH]c3ccccc23)N(C)C(=O)[C@@H](CC(C)C)N(C)C1=O (cyclo(L[dNMeL][NMeW]L[dP][NMeY])) yielded logD of 4.07

Looking up CC(C)C[C@@H]1NC(=O)[C@H](Cc2ccc(O)cc2)N(C)C(=O)[C@H]2CCCN2C(=O)[C@H](CC(C)C)NC(=O)[C@H](Cc2ccccc2)N(C)C(=O)[C@@H](CC(C)C)N(C)C1=O (cyclo(L[dNMeL][NMeF]L[dP][NMeY])) , I found its logD recorded as 4.46

Note to self: logD recorded for CC(C)C[C@@H]1NC(=O)[C@H](Cc2ccc(O)cc2)N(C)C(=O)[C@H]2CCCN2C(=O)[C@H](CC(C)C)NC(=O)[C@H](CCN2CCOCC2)N(C)C(=O)[C@@H](CC(C)C)N(C)C1=O (cyclo(L[dNMeL][NMeAbu(4-morpholino)]L[dP][NMeY])) was 2.79

Sample CC(C)C[C@@H]1NC(=O)[C@H](Cc2ccc(O)cc2)N(C)C(=O)[C@H]2CCCN2C(=O)[C@H](CC(C)C)NC(=O)[C@H](C)N(C)C(=O)[C@@H](CC(C)C)N(C)C1=O (cyclo(L[dNMeL][NMeA]L[dP][NMeY])) ; logD observed: 3.64
